The measurements presented in this section are drawn from paper PMC12892976.

Reported FLC FD (FLC:INH) values are given for each entry in this list.
System: Aspergillus flavus
Protocol Notes: checkerboard drug interaction (FICI, MICc);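 note: simplified diagonal checkerboard screen pairing azole antifungals with FPPS inhibitors, FICI calculated under the Loewe additivity model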
Assay type: cell-based
Test Context: A. flavus; MIC-MICc fold decrease of fluconazole; negative = increase

Take a look at these entries with their results.
- CCCCCCCCCCCN1CCC[C@H]1C(=O)N[C@@H](CC(=O)OC)C(=O)OC: 1
- CCCCCCCCCCN1CCC[C@H]1C(=O)N[C@@H](CC(=O)OC)C(=O)OC: 1
- CCCCCCCCCCCN1CCC[C@H]1C(=O)N[C@@H](CC(=O)O)C(=O)O: 2
- O=P(O)(O)C(O)(Cn1ccnc1)P(=O)(O)O [ZOL, zoledronate]: 2

Asked: State its FLC FD (FLC:INH) for this compound: CCCCCCCCCCN1CCC[C@H]1C(=O)N[C@H](CC(=O)OC)C(=O)OC
Given back: 4

Asked: Please list FLC FD (FLC:INH) recorded for the compound CCCCCCCCCN1CCC[C@H]1C(=O)N[C@H](CC(=O)O)C(=O)O
Given back: 2

Asked: Given CCCCCCCCCCCN1CCC[C@H]1C(=O)N[C@H](CC(=O)O)C(=O)O , respond with its FLC FD (FLC:INH).
Given back: 2

Asked: Fill in reported FLC FD (FLC:INH) for this entry: CCCCCCCCCCCCN1CCC[C@H]1C(=O)N[C@H](CC(=O)O)C(=O)O
Given back: 1

Asked: Give the value of FLC FD (FLC:INH) reported for the following: CCCCCCCCCCCN1CCC[C@H]1C(=O)N[C@H](CC(=O)OC)C(=O)OC
Given back: 2

Asked: Report measured FLC FD (FLC:INH); entry is CCCCCCCCCCCCN1CCC[C@H]1C(=O)N[C@@H](CC(=O)OC)C(=O)OC
Given back: 1

Asked: // Input: CCCCCCCCCCCCN1CCC[C@H]1C(=O)N[C@H](CC(=O)OC)C(=O)OC . Output its FLC FD (FLC:INH) only.
Given back: 1
